Target: Prostaglandin E synthase (Homo sapiens, UniProt O14684)
Sequence (O14684 whole entry): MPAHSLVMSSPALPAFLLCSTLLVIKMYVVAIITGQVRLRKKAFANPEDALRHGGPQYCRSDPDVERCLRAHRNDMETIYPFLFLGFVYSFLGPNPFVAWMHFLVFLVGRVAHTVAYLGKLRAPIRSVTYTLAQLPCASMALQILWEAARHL
Test: Inhibition of PGES-1 in IL-1beta stimulated human A549 cell microsomes using PGH2 as substrate assessed as suppression of PGE2 formation preincubated for 15 mins followed by substrate addition by reversed phase-HPLC analysis
Assay Endpoint: pIC50
Answers are plain numbers, as −log10 of the molar value.

CCOC(=O)/C=C/c1cc(O)c2c(c1)[C@@H](C(=O)OCC)[C@H](c1ccc(O)c(O)c1)O2 (racemic): 5.44
O=C(/C=C/c1cc(O)c2c(c1)[C@H](C(=O)OCCc1ccccc1)[C@@H](c1ccc(O)c(O)c1)O2)OCCc1ccccc1: 5.55
O=C(/C=C/c1cc(O)c2c(c1)[C@@H](C(=O)OCCc1ccccc1)[C@H](c1ccc(O)c(O)c1)O2)OCCc1ccccc1 (racemic): 5.70
COC(=O)/C=C/c1cc(O)c2c(c1)[C@@H](C(=O)OC)[C@H](c1ccc(O)c(O)c1)O2 (racemic): 5.07
CCCCOC(=O)/C=C/c1cc(O)c2c(c1)[C@@H](C(=O)OCCCC)[C@H](c1ccc(O)c(O)c1)O2 (racemic): 5.68

Now, please, on to the next compound.
INPUT: State the recorded pIC50 for this entry: "O=C(/C=C/c1cc(O)c2c(c1)[C@@H](C(=O)OCCc1ccccc1)[C@H](c1ccc(O)c(O)c1)O2)OCCc1ccccc1"
OUTPUT: 5.68
